# System: DLD-1
# Measurement Protocol: In vitro cytotoxicity against DLD-1 human tumor cell lines.
# Format: functional, cell-based
pIC50: −log10 of the molar value.
Attribute: pIC50

| Compound | pIC50 |
| --- | --- |
| O=C(Nc1ccccc1)OCC1(O)C(=O)OCc2c1cc1n(c2=O)Cc2cc3ccccc3nc2-1 (centres undefined) | 5.37 |
| CC(C)NC(=O)OCC1(O)C(=O)OCc2c1cc1n(c2=O)Cc2cc3ccccc3nc2-1 (centres undefined) | 4.63 |
| CC(C)NC(=O)OCCC1(O)C(=O)OCc2c1cc1n(c2=O)Cc2cc3ccccc3nc2-1 (centres undefined) | 4.96 |
| CCOCOCC1(O)C(=O)OCc2c1cc1n(c2=O)Cc2cc3ccccc3nc2-1 (centres undefined) | 4.77 |
| COCC(=O)OCC1(O)C(=O)OCc2c1cc1n(c2=O)Cc2cc3ccccc3nc2-1 (centres undefined) | 4.33 |
| CC(=O)OCCC1(O)C(=O)OCc2c1cc1n(c2=O)Cc2cc3ccccc3nc2-1 (centres undefined) | 5.15 |
| O=C1OCc2c(cc3n(c2=O)Cc2cc4ccccc4nc2-3)C1(O)CO (centres undefined) | 4.75 |
| O=C(Nc1ccccc1)OCCC1(O)C(=O)OCc2c1cc1n(c2=O)Cc2cc3ccccc3nc2-1 (centres undefined) | 5.92 |
| COCOCC1(O)C(=O)OCc2c1cc1n(c2=O)Cc2cc3ccccc3nc2-1 (centres undefined) | 5.62 |

Recorded values, source ChEMBL document CHEMBL1151007.
